- assayProtocol: Agilent ZORBAX 300 SB-C18, 150 × 1 mm, 3.5 µm; A: water + 0.01% heptafluorobutyric acid; B: acetonitrile + 0.01% heptafluorobutyric acid; gradient (min/%B) 0/0 100/90
- studyConditions: stereoisomer not certain
measuredMetric: LC retention time (min)

Answered cases to consult:
compound	unitsOfMeasure	LC retention time
COC(=O)Cn1ncccc1=O	min	6.64
CCN(CC)C(=O)c1ccc(O)c(OC)c1	min	9.39
Cc1c(O)c(=O)ccn1C	min	6.47
CC(=O)c1ccc2c(c1)N(CCCN(C)C)c1ccccc1S2	min	11.1

[1] Cc1[nH][nH]c(=O)c1CCC(=O)NN=Cc1c(C)[nH]c2ccccc12
[2] c1coc(-c2c3c(nc4ccc5ccccc5c24)CCCC3)c1
q: Which entry shows the lesser value of LC retention time here, 1 or 2 ? I would appreciate it if you answered with the label of your choice.
a: 1
(1: 8.93 min, 2: 13.8 min)

[a] CN(C(=O)CCCN1C(=O)c2ccccc2C1=O)C1CC(C)(C)N(C)C(C)(C)C1
[b] CCOc1cc(C(=O)N(CC)c2ccccc2)cc(OCC)c1OCC
q: Select the item with the higher value of LC retention time from the options a and b listed. I would appreciate it if you answered with the label of your choice.
a: b
(b: 15.9 min, a: 9.02 min)

[P] O=C1NC(O)C(O)N1 (stereo not drawn)
[Q] COc1ccc(C=NCCC2=CCCCC2)cc1OC
q: Select the item with the higher value of LC retention time from the options P and Q listed. I would appreciate it if you answered with the label of your choice.
a: Q

[A] Cc1cc(C(N)=O)c2ccccc2n1
[B] O=C(O)CNC(CO)(CO)CO
q: Which entry shows the lesser value of LC retention time here, A or B ? I would appreciate it if you answered with the label of your choice.
a: B
(B: 1.66 min, A: 7 min)

* * *

- assayProtocol: Agilent ZORBAX 300 SB-C18, 150 × 1 mm, 3.5 µm; A: water + 0.01% heptafluorobutyric acid; B: acetonitrile + 0.01% heptafluorobutyric acid; gradient (min/%B) 0/0 100/90
- studyConditions: stereoisomer not certain
measuredMetric: LC retention time (min)

molecule	LC retention time / min
NC(=O)C1(N2CCCCC2)CCN(C(=O)c2ccccc2)CC1	7.76
Cc1cn(COCc2ccccc2)c(=O)[nH]c1=O	9.82

[1] Nc1ccncn1
[2] O=C(CCCCCN1C(=O)c2ccccc2C1=O)Nc1cccc(C(=O)O)c1
[3] Cc1cc(C)cc(-c2nnc(-c3ccc(-c4ccccc4)cc3)o2)c1
q: Rank descending by LC retention time. Record the ranking as a list of labels in the requested order.
a: 3, 2, 1
(3: 20.5 min, 2: 11.6 min, 1: 3.44 min)

[A] NC(=O)C1CCN(C(=O)c2ccco2)CC1
[B] CC(=O)Oc1cccc(C(=O)NN2C(=O)c3ccccc3C2=O)c1
[C] CCCCCCCN1C(=O)c2ccccc2C1(O)Cc1ccccc1 (stereo not given)
q: Rank descending by LC retention time. Record the ranking as a list of labels in the requested order.
a: C, B, A
(C: 16.8 min, B: 11.1 min, A: 6.85 min)

* * *

- assayProtocol: Agilent ZORBAX 300 SB-C18, 150 × 1 mm, 3.5 µm; A: water + 0.01% heptafluorobutyric acid; B: acetonitrile + 0.01% heptafluorobutyric acid; gradient (min/%B) 0/0 100/90
- studyConditions: stereoisomer not certain
measuredMetric: LC retention time (min)

Answered cases to consult:
compound	LC retention time / min
CCn1c(C)n[nH]c1=S	6.98
Cc1ccccc1C=NNC(N)=S	10.7
O=c1[nH]c2cc[nH]c(=O)c2[nH]1	2.62
O=C(C(Cc1ccccc1)n1cccc1)N1CCCC1 (centres undefined)	13.8
COc1ccc(C2N(c3ccccc3)CCN2c2ccccc2)cc1	18.6

[P] CCCCCCCCSCCSC(=N)N
[Q] Cc1ccc2ccc[n+](C)c2c1
q: Which entry shows the lesser value of LC retention time here, P or Q ? I would appreciate it if you answered with the label of your choice.
a: Q

[A] Cc1ccc(CNC2CCCC2)o1
[B] CC(=NNC(=O)c1cc2ccccc2cc1O)c1ccc(-c2ccccc2)cc1
q: Select the item with the higher value of LC retention time from the options A and B listed. I would appreciate it if you answered with the label of your choice.
a: B

[A] Nc1ccc(CN2CCCC2)cc1
[B] CCc1c(C)[nH]c(C(=O)OCc2ccccc2)c1C
q: Which entry shows the lesser value of LC retention time here, A or B ? I would appreciate it if you answered with the label of your choice.
a: A

[a] C#CC1(NC(C)=O)CCCCC1
[b] CC(=O)C(C)(C)N
[c] O=C(NN=Cc1ccc(OCc2ccccc2)cc1)c1ccc(-c2ccccc2)cc1
[d] CN1N=C(C(=O)O)CCC1=O
q: Arrange the 4 compounds by rising LC retention time, starting with the smallest. Record the ranking as a list of labels in the requested order.
a: d, b, a, c
(d: 3.29 min, b: 5.58 min, a: 9.46 min, c: 16.9 min)
